- test.target: BCAT2 (Homo sapiens, UniProt O15382)
- Sequence (O15382 28-392): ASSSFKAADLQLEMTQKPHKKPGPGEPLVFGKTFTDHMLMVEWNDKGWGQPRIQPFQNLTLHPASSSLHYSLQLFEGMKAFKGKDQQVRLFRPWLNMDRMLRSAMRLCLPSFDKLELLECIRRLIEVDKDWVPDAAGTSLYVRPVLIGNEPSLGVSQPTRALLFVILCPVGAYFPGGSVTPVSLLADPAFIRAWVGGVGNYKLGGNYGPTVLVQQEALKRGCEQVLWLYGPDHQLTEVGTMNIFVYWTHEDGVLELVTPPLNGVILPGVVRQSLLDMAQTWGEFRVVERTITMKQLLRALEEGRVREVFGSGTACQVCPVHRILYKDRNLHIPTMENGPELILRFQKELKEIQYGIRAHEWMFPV
- procedure.details: BCAT2 in vitro enzyme inhibition assay (resazurin/diaphorase-coupled fluorescence)
- Format: biochemical
- particulars: average where tested multiple times
pIC50: −log10 of the molar value.
Recorded pIC50 by entry

Examples from the recorded data:
molecule: CO[C@H]1C[C@H](NC(=O)c2ncc(Cl)s2)C[C@H](n2c(-c3ccccc3F)nc3cnc(-c4nc[nH]n4)cc32)C1 (single isomer, unassigned) [Example 218]
value.type: pIC50
obs.value: ≥ 7.00

molecule: O=C(N[C@H]1CCC[C@@H](n2c(COC(F)(F)F)nc3cnc(-c4nc[nH]n4)cc32)C1)c1ncc(Cl)s1 [Example 313]
value.type: pIC50
obs.value: ≥ 7.00

molecule: CC(C)Cc1nc2cnc(-c3ccccn3)cc2n1[C@H]1C[C@H](O)C[C@@H](NC(=O)c2ncc(Cl)s2)C1 (single isomer, unassigned) [Example 215]
value.type: pIC50
obs.value: 6.00 to 6.30

molecule: CC(=O)N1CC(NC(=O)c2ncc(C(F)F)s2)CC(n2c(-c3ccccc3F)nc3cnc(-n4nccn4)cc32)C1 (centres unmarked) [Example 123]
value.type: pIC50
obs.value: ≥ 7.00

molecule: O=C(N[C@@H]1CCCC[C@H](n2c(-c3ccccc3F)nc3cnc(-c4nnc[nH]4)cc32)C1)c1ncc(Cl)s1 (single isomer, unassigned) [Example 87]
value.type: pIC50
obs.value: ≥ 7.00

Q: Hello, please tell me recorded pIC50 for this one: O=C(N[C@H]1CCC[C@@H](n2c(-c3ccccn3)nc3cc(-n4cncn4)ncc32)C1)c1ccc(Br)s1 [Example 150]
Result: 6.00 to 6.30

Q: Hello, please tell me recorded pIC50 for this one: CO[C@@H]1C[C@@H](NC(=O)c2ncc(Cl)s2)C[C@@H](n2c(-c3ccccc3F)nc3cnc(-n4nccn4)cc32)C1 (stereo in doubt) [Example 424]
Result: ≥ 7.00

Q: Hello, please tell me recorded pIC50 for this one: CO[C@H]1C[C@H](NC(=O)c2ncc(Cl)s2)C[C@H](n2c(CC(C)C)nc3cnc(-c4ncccn4)cc32)C1 [Example 435]
Result: ≥ 7.00

Q: Hello, please tell me recorded pIC50 for this one: O=C(NC1CCC(n2c(-c3ccccn3)nc3cnc(-n4ccnn4)cc32)C1)c1ccc(Br)s1 (centres unmarked) [Example 94]
Result: < 6.00

Q: Hello, please tell me recorded pIC50 for this one: O=C(N[C@H]1CCC[C@@H](n2c(-c3ccccc3F)nc3cnc(-c4nc[nH]n4)cc32)[C@@H]1O)c1ccc(Cl)s1 [Example 399]
Result: ≥ 7.00

Q: Hello, please tell me recorded pIC50 for this one: COc1cccc(F)c1-c1nc2cnc(-c3nc[nH]n3)cc2n1[C@H]1CCCC[C@@H](NC(=O)c2ccc(Cl)s2)[C@@H]1O [Example 406]
Result: 6.00 to 6.30

Q: Hello, please tell me recorded pIC50 for this one: CC(=O)N1CC(NC(=O)c2ccc(Br)s2)CC(n2c(-c3ccccn3)nc3cc(-c4ncon4)ccc32)C1 (centres unmarked) [Example 284]
Result: ≥ 7.00

Q: Hello, please tell me recorded pIC50 for this one: CC(C)Cc1nc2cnc(-c3cccc(C#N)n3)cc2n1[C@H]1CCC[C@@H](NC(=O)c2ncc(Cl)s2)[C@@H]1O [Example 391]
Result: < 6.00

Q: Hello, please tell me recorded pIC50 for this one: CC(C)Cc1nc2cnc(-c3ccn(C(F)F)n3)cc2n1[C@H]1CCC[C@@H](NC(=O)c2ncc(Cl)s2)[C@@H]1O [Example 229]
Result: 6.00 to 6.30

Q: Hello, please tell me recorded pIC50 for this one: O=C(N[C@H]1C[C@H](O)C[C@@H](n2c(-c3ccccc3F)nc3cnccc32)C1)c1ncc(Cl)s1 [Example 272]
Result: ≥ 7.00

Q: Hello, please tell me recorded pIC50 for this one: O=C(NC1CCCC(n2c(-c3ccccn3)nc3cnc(-c4cnco4)cc32)C1)c1ccc(Br)s1 (centres unmarked) [Example 3]
Result: ≥ 7.00

Q: Hello, please tell me recorded pIC50 for this one: CC(C)Cc1nc2cnc(-c3ccccc3F)cc2n1[C@@H]1CCC[C@H](NC(=O)c2ncc(Cl)s2)C1 [Example 206]
Result: 6.30 to 7.00

Q: Hello, please tell me recorded pIC50 for this one: O=C(N[C@H]1CCC[C@@H](n2c(-c3ccccc3F)nc3cnc(O[C@@H]4CCOC4)cc32)C1)c1ncc(Cl)s1 [Example 266]
Result: 6.30 to 7.00

Q: Hello, please tell me recorded pIC50 for this one: Cc1cccnc1-c1nc2cnc(-n3nccn3)cc2n1[C@@H]1CCC[C@H](NC(=O)c2ncc(C(F)F)s2)C1 [Example 60]
Result: ≥ 7.00

Q: Hello, please tell me recorded pIC50 for this one: CN1C[C@@H](NC(=O)c2ncc(Cl)s2)C[C@@H](n2c(-c3ccccc3F)nc3cnc(-c4nc[nH]n4)cc32)C1 (single isomer, unassigned) [Example 133]
Result: 6.30 to 7.00

Q: Hello, please tell me recorded pIC50 for this one: CN1CC(NC(=O)c2ccc(Br)s2)CC(n2c(-c3ccccc3F)nc3cnc(-c4ncco4)cc32)C1 (centres unmarked) [Example 117]
Result: ≥ 7.00

Q: Hello, please tell me recorded pIC50 for this one: CC(C)Cc1nc2cnc(-c3ccn(C)n3)cc2n1[C@H]1CCC[C@@H](NC(=O)c2ncc(Cl)s2)[C@@H]1O [Example 224]
Result: < 6.00

Q: Hello, please tell me recorded pIC50 for this one: CO[C@@H]1C[C@@H](NC(=O)c2ncc(Cl)s2)C[C@@H](n2c(CC(C)C)nc3cnc(-c4nc(C)co4)cc32)C1 [Example 410]
Result: < 6.00

Q: Hello, please tell me recorded pIC50 for this one: CC(C)Cc1nc2cnc(-c3ccccc3CO)cc2n1[C@@H]1CCC[C@H](NC(=O)c2ncc(Cl)s2)C1 [Example 205]
Result: < 6.00

Q: Hello, please tell me recorded pIC50 for this one: CO[C@@H]1C[C@@H](NC(=O)c2ccc(Cl)s2)C[C@@H](n2c(-c3ccccc3F)nc3cnc(-c4nc[nH]n4)cc32)C1 (stereo in doubt) [Example 412]
Result: ≥ 7.00

Q: Hello, please tell me recorded pIC50 for this one: Cn1ccc(-c2nc3cnc(-n4nccn4)cc3n2[C@@H]2CCC[C@H](NC(=O)c3ncc(C(F)F)s3)C2)n1 [Example 41]
Result: 6.30 to 7.00
